Test system: CASKI
Assay: Primary qHTS to identify gynecologic anti-cancer compounds using libraries of approved drugs and bioactive compounds (AID 1345084); note: nearly all actives have a fitted effect of over 55% in size
Conditions: Gynecologic cancer cell panel viability, ATPlite luminescence, 48 h; series mostly up to 57.5 µM
Records with an inconclusive call do not appear. Activity calls are given as the source filed them. Calls come from the whole dose curve; as a rule, active = well fitted cell-killing curve with a large enough effect; inconclusive = small, poorly fitted or top-dose-only effect, or effect the other way; inactive = flat fitted curve, though single readings scatter.
Allowed answers: TRUE for active, FALSE for inactive

State the result this test recorded for `Cc1cc(CN2CCN(c3c(Br)cnc4nc(-c5ccc(N6CCN(C)CC6)cc5)[nH]c34)CC2)no1` .
FALSE

Identify the outcome logged in this assay for the compound shown: `O=C(Nc1cn[nH]c1-c1nc2ccc(CN3CCOCC3)cc2[nH]1)NC1CC1`
TRUE

What call does the record list for `CC(=O)SC[C@@H](C)C(=O)N1CCC[C@H]1C(=O)N[C@@H](Cc1ccccc1)C(=O)O` ?
FALSE

Call for entry `COc1c(OCCCN2CCOCC2)ccc2c3n(c(=NC(=O)c4cnc(N)nc4)nc12)CCN3` :
TRUE

Give the logged outcome of this assay for the following compound: `O=C(Cc1ccc(-c2ccc(OCCN3CCOCC3)cc2)cn1)NCc1ccccc1`
FALSE

What classification did `C=CC(=O)Nc1cccc(Oc2nc(Nc3ccc(N4CCN(C)CC4)cc3)ncc2Cl)c1` end up with in this test?
TRUE

# fetch the recorded call for `Cc1ccc(C(N)=O)cc1Nc1nccc(-c2cn(C(C)C)c3cnccc23)n1` here
TRUE

I'd appreciate the recorded outcome for CC1(O)CC(c2nc(-c3ccc4ccc(-c5ccccc5)nc4c3)c3c(N)nccn23)C1 (stereo not given) from this test.
FALSE

Which outcome was entered for the compound `Cc1cn2c(-c3cn[nH]c3)cnc2c(Nc2ccc(C(=O)N3CCNCC3)cc2F)n1` in this test?
FALSE

Outcome logged for `Cc1[nH]nc2ccc(-c3cncc(OC[C@@H](N)Cc4ccccc4)c3)cc12` in this assay:
TRUE

Lab log entry: `Cc1coc2c1C(=O)C(=O)c1c-2ccc2c1CCCC2(C)C` — outcome as called in the assay?
FALSE

Per the records of this test, what outcome belongs to `O=C(O)c1ccc2c(c1)nc(Nc1cccc(Cl)c1)c1ccncc12` ?
TRUE

# outcome recorded in this test, key = `Nc1ncnc2c1c(-c1cnc3[nH]ccc3c1)nn2C1CCCC1`
TRUE

I would be grateful if you could indicate the recorded call for `CC1(C)CCC(c2ccc(Cl)cc2)=C(CN2CCN(c3ccc(C(=O)NS(=O)(=O)c4ccc(N[C@H](CCN5CCOCC5)CSc5ccccc5)c(S(=O)(=O)C(F)(F)F)c4)cc3)CC2)C1` .
TRUE

Test call, this compound: `CCCCCCCCCC(=O)N[C@@H](Cc1c[nH]c2ccccc12)C(=O)N[C@H](CC(N)=O)C(=O)N[C@@H](CC(=O)O)C(=O)N[C@@H]1C(=O)NCC(=O)N[C@@H](CCCN)C(=O)N[C@@H](CC(=O)O)C(=O)N[C@H](C)C(=O)N[C@@H](CC(=O)O)C(=O)NCC(=O)N[C@H](CO)C(=O)N[C@@H]([C@@H](C)CC(=O)O)C(=O)N[C@@H](CC(=O)c2ccccc2N)C(=O)O[C@@H]1C`
FALSE
